The reported measurements were obtained from ChEMBL document CHEMBL1129647.

# assay.system: Human immunodeficiency virus type 1 reverse transcriptase (Human immunodeficiency virus 1)
# assay.procedure: Compound was tested for inhibition of HIV-1 WT reverse transcriptase using poly(rA)300:oligo(dT)10 as substrate
Field: Ki. Provide a value for each of the compounds that follow.
Answers are plain numbers, in nM.

{"columns": ["sample.smiles", "Ki [nM]"],
 "data": [
  ["CCN(c1ncccc1NC(C)(C)C)C1CCN(C(=O)c2cc3cc(NS(C)(=O)=O)ccc3[nH]2)CC1", 1380]
]}

Next item in the queue.
Query: # returns recorded Ki (system: Human immunodeficiency virus type 1 reverse transcriptase (Human immunodeficiency virus 1)) for `CCN(c1nc(F)ccc1NC(C)(C)C)C1CCN(C(=O)c2cc3cc(NC(=O)N4CCN(C)CC4)ccc3[nH]2)CC1`
Response: 1640

----------
# assay.system: Human immunodeficiency virus type 1 reverse transcriptase (Human immunodeficiency virus 1, UniProt Q72547, P236L)
reported.property: IC50 (nM)
One number for each entry, in nM.

Would you please look over these solved cases?
{"columns": ["sample.smiles", "uom", "IC50"],
 "data": [
  ["CC(C)Nc1cccnc1N(C)C1CCN(C(=O)c2cc3ccc(OCCOCCOCCO)cc3[nH]2)CC1", "nM", 410],
  ["CCNc1cccnc1N(CC)C1CCN(C(=O)c2cc3cc(NS(C)(=O)=O)ccc3[nH]2)CC1", "nM", 540],
  ["CCNc1cccnc1N(C(C)C)C1CCN(C(=O)c2cc3cc(NS(C)(=O)=O)ccc3[nH]2)CC1", "nM", 2600]
]}

Now consider a different compound.
Query: What value of measured IC50 is listed for `CCN(c1ncccc1NC(C)C)C1CCN(C(=O)c2cc3cc(NC(=O)N4CCN(C)CC4)ccc3[nH]2)CC1` ?
Response: 180

----------
# Test system: Human immunodeficiency virus 1
# assay.procedure: In vitro inhibition of recombinant HIV-1 IIIB mutant Y181C
# Type: functional, organism-based
Kindly supply the reported pIC50 values for the records listed here.
Give bare numbers, as −log10 of the molar value.

{"columns": ["sample.smiles", "pIC50"],
 "data": [
  ["CCN(c1ncccc1NC(C)(C)C)C1CCN(C(=O)c2cc3cc(NS(C)(=O)=O)ccc3[nH]2)CC1", 6.18]
]}

Turning now to a further compound:
Query: Find the measured pIC50: item `CCN(c1nc(F)ccc1NC(C)(C)C)C1CCN(C(=O)c2cc3cc(NC(=O)N4CCN(C)CC4)ccc3[nH]2)CC1` , target or system Human immunodeficiency virus 1.
Response: 6.10

----------
# assay.system: Human immunodeficiency virus type 1 reverse transcriptase (Human immunodeficiency virus 1, UniProt Q72547, P236L)
Kindly supply the reported IC50 values for the records listed here.
Answers are plain numbers, in µM.

The cases that follow already have their IC50 on record.
{"columns": ["sample.smiles", "IC50 (µM)"],
 "data": [
  ["CC(C)Nc1cccnc1N(C1CC1)C1CCN(C(=O)c2cc3cc(NS(C)(=O)=O)ccc3[nH]2)CC1", 0.7],
  ["CCN(c1nc(Cl)ccc1NC(C)(C)C)C1CCN(C(=O)c2cc3cc(NS(C)(=O)=O)ccc3[nH]2)CC1", 1.52]
]}

Give measured IC50 for every item shown.
1. CC(C)Nc1ccc(Cl)nc1N(C)C1CCN(C(=O)c2cc3cc(NS(C)(=O)=O)ccc3[nH]2)CC1
2. CCNc1cccnc1N(CC)C1CCN(C(=O)c2cc3cc(NS(=O)(=O)N4CCN(C)CC4)ccc3[nH]2)CC1
3. CCN(c1nc(F)ccc1NC(C)C)C1CCN(C(=O)c2cc3cc(NS(C)(=O)=O)ccc3[nH]2)CC1
4. CCCN(c1ncccc1NC(C)(C)C)C1CCN(C(=O)c2cc3cc(NS(C)(=O)=O)ccc3[nH]2)CC1

Response:
[1.7, 0.44, 0.54, 1.45]

Would you mind giving IC50 for every molecule in the list below?
1. CC(C)Nc1ccnnc1N(C)C1CCN(C(=O)c2cc3cc(NS(C)(=O)=O)ccc3[nH]2)CC1
2. CCCN(c1ncccc1NC(C)C)C1CCN(C(=O)c2cc3cc(NS(C)(=O)=O)ccc3[nH]2)CC1

Response:
1: 4.56; 2: 0.24
